TARGET DESC: B-Raf V600E (Homo sapiens (Human), UniProt P15056, V600E)
Sequence (P15056 whole entry V600E): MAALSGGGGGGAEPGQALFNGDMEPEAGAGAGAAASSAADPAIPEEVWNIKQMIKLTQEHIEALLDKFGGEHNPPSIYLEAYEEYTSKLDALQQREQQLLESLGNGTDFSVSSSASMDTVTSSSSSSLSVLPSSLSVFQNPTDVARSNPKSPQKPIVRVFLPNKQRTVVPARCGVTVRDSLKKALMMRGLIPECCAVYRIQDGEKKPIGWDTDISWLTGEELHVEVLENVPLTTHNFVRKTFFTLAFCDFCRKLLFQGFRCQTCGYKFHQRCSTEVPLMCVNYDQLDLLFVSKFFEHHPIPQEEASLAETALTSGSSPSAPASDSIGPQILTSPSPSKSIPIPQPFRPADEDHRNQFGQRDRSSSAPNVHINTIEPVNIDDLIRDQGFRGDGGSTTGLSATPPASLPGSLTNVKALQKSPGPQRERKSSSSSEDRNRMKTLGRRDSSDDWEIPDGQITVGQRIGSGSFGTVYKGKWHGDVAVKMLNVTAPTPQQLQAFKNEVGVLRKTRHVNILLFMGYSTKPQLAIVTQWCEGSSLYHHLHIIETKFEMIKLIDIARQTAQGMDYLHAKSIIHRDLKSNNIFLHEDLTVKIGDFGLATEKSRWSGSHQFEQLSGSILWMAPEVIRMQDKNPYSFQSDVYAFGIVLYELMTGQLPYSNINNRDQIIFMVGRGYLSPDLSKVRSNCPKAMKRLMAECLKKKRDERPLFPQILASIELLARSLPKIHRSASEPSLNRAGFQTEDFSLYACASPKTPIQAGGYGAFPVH
EXPERIMENT NOTES: Kinase assay (33P FlashPlate) B-Raf V600E
CONDITION: read-out: IC50 B-Raf V600E (n = 1); Table 1, n = 1
pIC50: −log10 of the molar value.
Reported pIC50 values for the following compounds.

[
  {
    "COMPOUND": "Nc1c(C(=O)O)c(-c2ccncc2)nn1-c1c(Cl)cc(Cl)cc1Cl [Compound 16]",
    "QUALIFIER SYMBOL": "<",
    "pIC50": 4.00
  },
  {
    "COMPOUND": "Fc1ccc(-c2cn(-c3ccc(C(F)(F)F)cc3)nc2-c2ccncc2)cc1 [Compound 20]",
    "QUALIFIER SYMBOL": "=",
    "pIC50": 5.57
  },
  {
    "COMPOUND": "Nc1c(-c2ccc(F)cc2)c(-c2ccncc2)nn1-c1ccccc1 [Compound 5]",
    "QUALIFIER SYMBOL": "=",
    "pIC50": 6.05
  },
  {
    "COMPOUND": "NC(=O)c1c(-c2ccncc2)nn(-c2ccccc2)c1N [Compound 18]",
    "QUALIFIER SYMBOL": "=",
    "pIC50": 4.19
  },
  {
    "COMPOUND": "N#Cc1ccc(-n2nc(-c3ccncc3)c(-c3ccc(F)cc3)c2N)cc1 [Compound 11]",
    "QUALIFIER SYMBOL": "=",
    "pIC50": 5.77
  },
  {
    "COMPOUND": "COc1ccc(-n2nc(-c3ccncc3)c(-c3ccc(F)cc3)c2N)cc1 [Compound 8]",
    "QUALIFIER SYMBOL": "=",
    "pIC50": 6.07
  },
  {
    "COMPOUND": "Nc1cc(-c2ccncc2)nn1-c1c(Cl)cc(Cl)cc1Cl [Compound 19]",
    "QUALIFIER SYMBOL": "<",
    "pIC50": 4.00
  },
  {
    "COMPOUND": "Clc1cc(Cl)c(N/N=C/c2ccncc2)c(Cl)c1 [Compound 3a]",
    "QUALIFIER SYMBOL": "=",
    "pIC50": 5.60
  },
  {
    "COMPOUND": "CCOC(=O)c1c(-c2ccncc2)nn(-c2c(Cl)cc(Cl)cc2Cl)c1N [Compound 15]",
    "QUALIFIER SYMBOL": "<",
    "pIC50": 4.00
  },
  {
    "COMPOUND": "NC(=O)c1c(-c2ccncc2)nn(-c2c(Cl)cc(Cl)cc2Cl)c1N [Compound 14]",
    "QUALIFIER SYMBOL": "<",
    "pIC50": 4.00
  }
]

* * *

TARGET DESC: Src (Homo sapiens (Human), UniProt P12931)
Sequence (P12931 whole entry, looked up): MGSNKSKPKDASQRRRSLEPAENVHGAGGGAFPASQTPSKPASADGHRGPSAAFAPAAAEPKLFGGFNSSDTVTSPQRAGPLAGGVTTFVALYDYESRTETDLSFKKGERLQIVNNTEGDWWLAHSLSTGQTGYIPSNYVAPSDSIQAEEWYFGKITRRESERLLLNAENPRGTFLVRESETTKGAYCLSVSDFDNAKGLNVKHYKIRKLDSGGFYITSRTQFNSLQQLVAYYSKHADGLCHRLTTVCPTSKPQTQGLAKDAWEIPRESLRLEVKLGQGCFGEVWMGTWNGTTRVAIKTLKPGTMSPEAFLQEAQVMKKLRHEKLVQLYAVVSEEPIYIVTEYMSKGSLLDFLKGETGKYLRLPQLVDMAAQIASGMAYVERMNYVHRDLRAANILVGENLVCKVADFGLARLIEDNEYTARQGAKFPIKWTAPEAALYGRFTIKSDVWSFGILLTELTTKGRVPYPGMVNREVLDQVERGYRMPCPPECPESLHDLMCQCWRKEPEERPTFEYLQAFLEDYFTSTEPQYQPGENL
EXPERIMENT NOTES: Kinase assay (33P FlashPlate) Src
CONDITION: read-out: IC50 Src (n = 1); Table 1, n = 1

[
  {
    "SMILES STRING": "Nc1c(-c2ccc(F)cc2)c(-c2ccncc2)nn1-c1ccccc1",
    "TARGET DESC": "Src (Homo sapiens (Human), UniProt P12931)",
    "IC50": "52 µM"
  },
  {
    "SMILES STRING": "NC(=O)c1c(-c2ccncc2)nn(-c2ccccc2)c1N",
    "TARGET DESC": "Src (Homo sapiens (Human), UniProt P12931)",
    "IC50": "19 µM"
  },
  {
    "SMILES STRING": "N#Cc1ccc(-n2nc(-c3ccncc3)c(-c3ccc(F)cc3)c2N)cc1",
    "TARGET DESC": "Src (Homo sapiens (Human), UniProt P12931)",
    "IC50": "> 100 µM"
  },
  {
    "SMILES STRING": "Fc1ccc(-c2cn(-c3ccc(C(F)(F)F)cc3)nc2-c2ccncc2)cc1",
    "TARGET DESC": "Src (Homo sapiens (Human), UniProt P12931)",
    "IC50": "12 µM"
  }
]
